Values from patent EP4722219A1

- Target entity: ERα (Homo sapiens)
- Sequence (P03372 whole entry): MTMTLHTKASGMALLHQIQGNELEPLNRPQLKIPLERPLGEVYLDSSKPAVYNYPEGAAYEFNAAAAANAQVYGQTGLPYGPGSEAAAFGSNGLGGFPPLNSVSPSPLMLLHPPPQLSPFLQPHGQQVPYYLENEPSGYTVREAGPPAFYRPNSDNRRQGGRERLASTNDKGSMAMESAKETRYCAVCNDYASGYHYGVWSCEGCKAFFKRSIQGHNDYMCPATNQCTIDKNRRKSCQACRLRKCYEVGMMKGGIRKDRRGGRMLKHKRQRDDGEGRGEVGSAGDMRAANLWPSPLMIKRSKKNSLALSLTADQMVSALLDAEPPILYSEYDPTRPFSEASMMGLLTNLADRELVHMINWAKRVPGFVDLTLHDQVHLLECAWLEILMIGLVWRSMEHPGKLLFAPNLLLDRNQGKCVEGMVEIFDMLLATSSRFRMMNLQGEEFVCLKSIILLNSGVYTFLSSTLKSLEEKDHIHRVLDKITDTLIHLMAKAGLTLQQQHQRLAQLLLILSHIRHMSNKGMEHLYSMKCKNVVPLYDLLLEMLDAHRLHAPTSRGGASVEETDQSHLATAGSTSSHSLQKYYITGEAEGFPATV
- Method description: ERα degradation in MCF-7 cells (Western blot)
- Format: cell-based
- Set-up: host or cells: MCF-7
- Condition parameters: 1nM, 4 hours
Use fulfilled when the recorded Degradation rate of ERα in MCF-7 cells (%) is no lower than 10%; use not fulfilled when it is lower.

Query :: Test whether the molecule O=C1CCC(Nc2ccc3c(c2)OC[C@@H]2CN(C4CCC5(CC4)CN(c4ccc([C@@H]6c7ccc(O)cc7CC[C@@H]6c6ccccc6)cc4)C5)CCN32)C(=O)N1 (some centres unmarked) [ER-P-36] records Degradation rate of ERα in MCF-7 cells (%) of 10% or higher.
Result :: not fulfilled

Query :: Has O=C1CCC(n2c(=O)n3c4c(cccc42)N(C[C@H]2CC[C@@H](OC4CCN(c5ccc([C@@H]6c7ccc(O)cc7CC[C@@H]6c6ccccc6)cc5)CC4)CC2)CC3)C(=O)N1 (some centres unmarked) [ER-P-56] a recorded Degradation rate of ERα in MCF-7 cells (%) greater than or equal to 10%?
Result :: not fulfilled

Query :: Form field: Degradation rate of ERα in MCF-7 cells (%) at least 10%? Entry: COc1c(C(=O)N[C@H]2CCC(=O)NC2=O)ccc2c1OC[C@H]1CN(CC3CCC(OC4CCN(c5ccc([C@@H]6c7ccc(O)cc7CC[C@@H]6c6ccccc6)cc5)CC4)CC3)CCN21 (some centres unmarked) [ER-P-48]
Result :: fulfilled

Query :: Does Degradation rate of ERα in MCF-7 cells (%) meet or surpass 10% for O=C1CC[C@H](N2Cc3cc(N4CCN(CC5CCN(c6ccc([C@@H]7c8ccc(O)cc8CC[C@@H]7c7ccccc7)cc6)CC5)CC4)ccc3C2=O)C(=O)N1 [ARV-471, reference compound] ?
Result :: fulfilled

Query :: Item O=C1CCC(N2Cc3c(ccc4c3OCC43CCC4(CCN(C5CCN(C(=O)C6CCN(c7ccc([C@@H]8c9ccc(O)cc9CC[C@@H]8c8ccccc8)cc7)CC6)CC5)CC4)CC3)C2=O)C(=O)N1 (some centres unmarked) [ER-P-5] with Degradation rate of ERα in MCF-7 cells (%) of 10% or above?
Result :: fulfilled
